System: MS2 coat protein
Experiment: apparent KD of MS2 coat protein; higher = weaker reporter binding
Conditions: Eterna round: R107; input ligand: theophylline 20 uM
Decide using apparent KD of MS2 coat protein: a value greater than or equal to 40 nM is 1, a smaller one is -1.

* GUAAAUGUGACGGAUACCAGCGUGUUGUAGAACAUGAGGAUCACCCAUGUAGUGAUCAUGCGCCCUUGGCAGCUGGUAUGUUUGU [7.aB] | 1
* GAUUACAUGAGGAUCACCCAUGUAACUGAAGGAGCGGUAAUAAAGCCAGGUAGGUCGCGGAACAACAUGUGGAUCACCCAUGUAA [#13 Exclusion - Arginine A] | 1
* UAUCCACAUGAGGAUCACCCAUGUUAGGAAGGAGCGGUGAAUGAACCAGGUAGGUCGCCUAGGUGAGGACCAUCUAUGGAUUCGU [Exclusion - Arginine A (Freestyle 12)] | -1
* GAGUUCCUGAGAGAUACCAGUGAGGCCACAUGAGGAUCACCCAUGUCCCUCACUCCGGCCCACCCUUGGCAGCUCGAAAGAUAUU [Exclusion Theophylline B GF 22] | -1
* AUAAAUAAGGCGGCCGCCACUAAUAUAUUAAUAUUUUAUAUCCGACAUGAGGAUCACCCAUGUGGUAGGACCGGGCCAAUAAUUA [Same State - Tryptophan B] | 1
* ACAUGAGGAUCACCCAUGUAUGAUGUUCCUCGAGGACCGGUACGGCCGCCACUCGAACGAGUGGCGCGCGAGUGCGCACUCGCGC [aWa] | -1

* * *

Examples of sequences with documented apparent KD of K4 kissing-loop reporter follow.
Test system: K4 kissing-loop RNA reporter;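 note: bound reporter read as fluorescence of individual clusters on recovered sequencing chips by microscopy, with normalized cluster intensities fitted with a binding model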
Assay: apparent KD of K4 kissing-loop reporter; higher = weaker reporter binding
Conditions: Eterna round: R107; input ligand: theophylline 20 uM
value type: apparent KD of K4 kissing-loop reporter (nM)

* AAAAUAAUCCAGUGAUGUUGGUAUGCAGAUACCAGCGACGAAAGUCGCCCUUGGCAGCUGUGGACGUACAAAAUAAGUACGUCCU | 979
* GGAACGUUGCGGACUAUCGCAUAAAGUCACCGAGGACCGGUACGGCCGCCACUCGCCAGUGAUGUUGGCGUGUUUGCGCGCUGUA [Isteri] | 83.6
* AGUGGACGUGUCCGGAGUGAUGUUCCGGAUACCAGACACGAAAGUGUCCCUUGGCAGCCGGAGUAAAGUUCCGGCGUUCACUAAA [#26 K4 Theophylline A Exclusion] | 67.2

* * *

Tested on: MS2 coat protein
Assay: apparent KD of MS2 coat protein; designed switch direction (-1 OFF switch, 1 ON switch): -1; higher = weaker reporter binding
Details: Eterna round: R95; input ligand: microRNA oligo, concentration not stated
Think of 40 nM as a floor: if apparent KD of MS2 coat protein stands on it or above, it is Criterion met; beneath it, Criterion not met.

• CAGUACUGAGGAUAUACAUGAGGAUCACCCAUGUGUUCCAGCUAGGAAACUAGCAAGAGUAGAAGGCAGUACUG [salish99_ex3_r3_066] (puzzle: Exclusion 3) = Criterion not met
• AGUACUAUCACGAAAGUGAUAGUACAAUAAACAAGUGAAACAUGAGGAUCACCCAUGUCCUCAUUUGCUCGUCUUAU [Sensor 3 - 1] (puzzle: Sensor v3, turn-off variant 2) = Criterion met
• CGGUGCUGAGGAUAUACAUGAGGAUCACCCAUGUGUUCCAGCUAGCGUACUGGCAGGUGUAGAAGGCGGUACUG [JL-ex3-3.41 Brourd mod] (puzzle: Exclusion 3) = Criterion not met
• UUAUUUAGUGUGAGGAUAUGCUGGUCGAUAGAUCAGCAGAAGGCACAUGAGGAUCACCCAUGUAAUAUAUUAAA [Mat - Exclusion 4 - JL Mod - D34] (puzzle: Brourd's mod of Exclusion 4) = Criterion met
• UUUUAACAUGAGGAUCACCCAUGUGAGGAUAUCGUAUUUUUUUUUUUUUUUUUUUUUUCGAGAAGGCACAUUUU [My solution] (puzzle: Exclusion 1) = Criterion not met
• CUGGUCCGAGGAUAUAUUAUGUGAUACAUGAGGAUCACCCAUGUUAUAUGAUGGAUAUUAAUAGAAGGCGGACUAG [Mat - Exclusion 5 - JL mod - D73] (puzzle: Exclusion 5) = Criterion met
• GGUCCACAUGAGGAUCACCCAUGUUAGGAUAUCUCCUGCCUCCUCACUGGAGGCAGACAGAGAAGGAACAUCAA [Eratxe] (puzzle: Exclusion 1) = Criterion not met
• AAGAAGAAACAAGCUUUUUGCACGUCAUAUAGUGACGCAACAUGAGGAUCACCCAUGUAUAGGGUGGGAAAGGAUAG [JR_SV3TOV2_Sub047] (puzzle: Sensor v3, turn-off variant 2) = Criterion met
• AUUACUAACACGAAAGUGUUAGUACAAUAAGCUUGUGAAACAUGAGGAUCACCCAUGUCCUCAUAAGCUCGUCUUAA [salish99_TOv2_r3_010] (puzzle: Sensor v3, turn-off variant 2) = Criterion met
• AAGCGCGUAGGAUAUACAUGAGGAUCACCCAUGUGAGGAAGGAGUAGGAAGUGUGGAAGUAGAAGGACGGAGAG [JR_Exclu3_Sub077] (puzzle: Exclusion 3) = Criterion not met
• CCUCACAGAGGAUAUACGUCCACUGAACCCAUGAGGUUGCCACAUGAGGAUCACCCAUGUAGAAGGCUGUGCUG [Mageanma] (puzzle: Exclusion 2) = Criterion not met
• AUGAGGUUAGGAUAUACAUGAGGAUCACCCAUGUUGGAGAAGGAAAUGUAAGUAGCGAGUAGAAGGAACGGAGC [JR_Exclu3_Sub059] (puzzle: Exclusion 3) = Criterion met
• UGUGCGUAUGUGAGGAUAUGCUGGUCCUUGGAUCGGCAGAAGGCACAUGAGGAUCACCCAUGUGGUGUCGUUCU [salish99_Bmod_ex4_096] (puzzle: Brourd's mod of Exclusion 4) = Criterion met
• ACCUCACAUGAGGAUCACCCAUGUUAGGAUAUCUCGGCGCCCUGUAGGCAGUAGCGCCAGAGAAGGAACGUGCA [Gearorso] (puzzle: Exclusion 1) = Criterion not met
• CCAGCGUAUGUGAGGAUAUGCUGGUCCUUGGAUCAGCAGAAGGCACAUGAGGAUCACCCAUGUAGAGACGUUGG [JL bmx4 3.43] (puzzle: Brourd's mod of Exclusion 4) = Criterion not met
• CGGUGCUGAGGAUAUACAUGAGGAUCACCCAUGUGUUCCUGCUAGGUGACUGGCAAAUGUAGAAGGCGGUACUG [JL-ex3-3.37 Brourd mod] (puzzle: Exclusion 3) = Criterion met
• GUCCUACAUGAGGAUCACCCAUGUAAGGAUAUGCUAGCGGUCGGCUGACUGACUGCUAGCAGAAGGUACAUGAU (puzzle: Exclusion 1) = Criterion not met
• CAGGACUGAGGAUAUGCGCGGACAAGAUCCUCAAUCCCAAAACAUGAGGAUCACCCAUGUAGAAGGCAGAAAUA [Edbein] (puzzle: Exclusion 2) = Criterion not met
• UUUUUACAUGAGGAUCACCCAUGUCAGGAUAUUCUUAUAUUUUAUUAUUUUAUUUUUUGAAGAAGGGACUAUUA [My solution] (puzzle: Exclusion 1) = Criterion met
• CUGAGCUGAGGAUAUACAUGAGGAUCACCCAUGUGUUCCAGCUUGGGUACAGGCACAUGUAGAAGGCAGUUCGG [Mod of JL - ex3-3.35 Brourd mod] (puzzle: Exclusion 3) = Criterion met
